For each entry below, report its NanoBRET Abs IC50 value.
subject.of.test: T1, B-cat-Halo (beta-catenin HaloTag fusion expressed in HEK293 cells) (UniProt P35222 1-781)
T1 sequence (looked up): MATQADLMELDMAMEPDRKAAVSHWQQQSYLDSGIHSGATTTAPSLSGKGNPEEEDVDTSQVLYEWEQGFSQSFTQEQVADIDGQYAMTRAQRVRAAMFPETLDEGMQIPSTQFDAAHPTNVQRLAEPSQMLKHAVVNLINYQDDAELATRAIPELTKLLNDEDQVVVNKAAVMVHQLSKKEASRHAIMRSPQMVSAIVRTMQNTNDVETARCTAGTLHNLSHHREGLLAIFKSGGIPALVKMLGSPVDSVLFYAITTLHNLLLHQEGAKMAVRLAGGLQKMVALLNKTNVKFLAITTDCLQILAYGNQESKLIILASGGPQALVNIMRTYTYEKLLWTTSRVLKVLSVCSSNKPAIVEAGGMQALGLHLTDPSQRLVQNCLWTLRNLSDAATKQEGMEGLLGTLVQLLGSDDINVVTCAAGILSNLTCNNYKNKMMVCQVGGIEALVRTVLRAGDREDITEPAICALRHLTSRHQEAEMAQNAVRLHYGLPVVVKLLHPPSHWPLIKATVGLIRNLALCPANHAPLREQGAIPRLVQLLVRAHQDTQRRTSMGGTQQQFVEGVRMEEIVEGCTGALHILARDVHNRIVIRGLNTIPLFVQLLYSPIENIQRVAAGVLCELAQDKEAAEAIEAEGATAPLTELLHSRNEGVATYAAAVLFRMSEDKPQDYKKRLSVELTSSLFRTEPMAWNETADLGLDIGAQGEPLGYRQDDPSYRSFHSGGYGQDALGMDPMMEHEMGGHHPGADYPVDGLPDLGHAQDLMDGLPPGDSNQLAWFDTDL
experiment: cell-based or functional assay
Starred links: 1 amine or outer side, 2 acyl side, 3 side chain; linkers in the order of their positions; H or OH if unused. Positions of bridges follow the written chain, without caps; N, C: chain ends. Non-standard residues stand in square brackets, D forms with d. Primed or numbered codes have the meaning given here. B5(4) = 2,2-bis(4-pentenyl)glycine = 2-amino-2-(pent-4-en-1-yl)hept-6-enoic acid (stitching residue), C=CCCCC(CCCC=C)(N[*:1])C(=O)[*:2]; TfeGA = (S)-2-amino-3-((carboxymethyl)(2,2,2-trifluoroethyl)amino)propanoic acid, O=C([C@H](CN(CC(=O)[*:3])CC(F)(F)F)N[*:1])[*:2]; (EtSSpy)AspE = (S)-2-amino-4-oxo-4-(2-(pyridin-2-yldisulfaneyl)ethoxy)butanoic acid, O=C(C[C@H](N[*:1])C(=O)[*:2])OCCSSc1ccccn1; PyrS2 = (S)-3-amino-1-((pent-4-en-1-yloxy)carbonyl)pyrrolidine-3-carboxylic acid, C=CCCCOC(=O)N1CC[C@@](N[*:1])(C(=O)[*:2])C1; (Ac)GA = (S)-2-amino-3-(N-(carboxymethyl)acetamido)propanoic acid, CC(=O)N(CC(=O)[*:3])C[C@H](N[*:1])C(=O)[*:2]; GA = (S)-2-amino-3-((carboxymethyl)amino)propanoic acid, O=C([C@H](CNCC(=O)[*:3])N[*:1])[*:2]; B5 = 2-amino-2-(pent-4-en-1-yl)hept-6-enoic acid, C=CCCCC(CCCC=C)(N[*:1])C(=O)[*:2]; 2NH2F″ = O=C([C@H](Cc1ccccc1N[*:3])N[*:1])[*:2]; Phe(2-Cl) = N[C@@H](Cc1ccccc1Cl)C(=O)O; Phe(2-Me) = Cc1ccccc1C[C@H](N)C(=O)O; Bta = N[C@@H](Cc1csc2ccccc12)C(=O)O; αAllylPro = C=CC[C@@]1(C(=O)O)CCCN1; tBuAla = CC(C)(C)C[C@H](N)C(=O)O; 3Thi = N[C@@H](Cc1ccsc1)C(=O)O; PyrS2(4) = not defined here
Enter your answer as a number in µM; do not include the unit.

Ac-[αAllylPro]D[tBuAla][B5]D[GA]AAFL[PyrS2][3Thi][Bta]Q-NH2 (staple 1-4, 4-11) [I-1731] has a reported NanoBRET Abs IC50 of 29.5

Ac-[αAllylPro]D[tBuAla][B5]D[TfeGA]AAFL[PyrS2][Phe(2-Me)][Bta]Q-NH2 (staple 1-4, 4-11) [I-1725] has a reported NanoBRET Abs IC50 of 10

Ac-[αAllylPro]D[tBuAla][B5(4)]DDAA[2NH2F″]N[PyrS2(4)][Phe(2-Cl)][Bta]Q-NH2 (staple 1-4, 4-11; not fully specified; reading uncertain) [I-1727] has a reported NanoBRET Abs IC50 of 34.1

Ac-[αAllylPro][(EtSSpy)AspE][tBuAla][B5]DDAAFN[PyrS2][Phe(2-Cl)][Bta]Q-NH2 (staple 1-4, 4-11; not fully specified) [I-1724] has a reported NanoBRET Abs IC50 of 29.7

Ac-[αAllylPro]D[tBuAla][B5]D[(Ac)GA]AAFL[PyrS2][3Thi][Bta]Q-NH2 (staple 1-4, 4-11) [I-1729] has a reported NanoBRET Abs IC50 of 23

These entries and their values trace back to patent US20240116985A1.
